Where these numbers come from: patent US20130266574A1

- Tested System: T1, amino acid residues 26-148 of human ANGPTL4 fused in-line to mouse IgG2a (hANGPTL4-mFc) (human)
- T1 construct: contains the N-terminal coiled-coil region
- T1 chain: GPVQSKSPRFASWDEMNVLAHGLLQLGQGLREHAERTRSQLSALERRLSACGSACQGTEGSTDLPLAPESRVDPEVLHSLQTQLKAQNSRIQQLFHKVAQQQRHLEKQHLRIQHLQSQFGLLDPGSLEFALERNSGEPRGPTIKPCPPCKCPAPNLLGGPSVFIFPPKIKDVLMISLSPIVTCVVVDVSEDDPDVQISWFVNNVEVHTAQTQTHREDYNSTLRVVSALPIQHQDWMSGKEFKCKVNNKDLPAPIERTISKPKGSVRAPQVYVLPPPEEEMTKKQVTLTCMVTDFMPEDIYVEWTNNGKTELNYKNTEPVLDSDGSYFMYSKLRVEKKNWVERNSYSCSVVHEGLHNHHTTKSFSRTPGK
- Procedure Summary: SPR (Biacore T100), hANGPTL4-mFc captured by anti-mouse IgG, antibody injected, 37° C.
Would you kindly list t1/2 for each of these binders?
Give bare numbers, in min.

>>> measured_number("H1H283P (antibody, V domains shown, Fully human antibody, H1H prefix (human IgG1)) VH: EVQLVESGGGLVQPGGSLRLSCAASGFTFSSYDMHWVRQVAGKGLEWVSAIGTAGDTYYPVSVKGRFTISRENAKNSLYLHMNSLRAGDTAVYFCARGDSRNYYVGDYFDYWGQGTLVTVSS VL: DIQMTQSPSTLSASVGDRVTITCRASQSISRWLAWYQQKPGKAPKVLIYKASNLESGVPSRFSGSGSGTEFTLTISSLQPDDFATYYCQQYNSYSRTFGQGTKVEIK")
12
>>> measured_number("H1H653P (antibody, V domains shown, Fully human antibody, H1H prefix (human IgG1)) VH: QVQLVESGGGVVQPGRSLRLSCVASGFTFSSYGMHWVRQAPGKGLEWMAVIWYDGSNKYFADSVKDRFTISRDNSKNTLYLQMNTLRPDDTAVYYCVKADAPLLIYGVDVWGQGTTVTVS VL: DIQMTQSPSSLSASVGDRVTITCRASQGIRNDLGWYQEKPGKAPKRLIYFASSLQSGVPSRFSGSGSGTEFTLTISSLQPEDFATYYCLQHNSYPYTFGQGTKLEIK")
6
>>> measured_number("H1H291P (antibody, V domains shown, Fully human antibody, H1H prefix (human IgG1)) VH: EVQLVESGGGLVQPGGSLRLSCAASGFTFSTYDMHWVRQGLGKGLEWVSAIGSAGDTYYPGSVKGRFTISRDNAKSSLFLHMNSLRAGDTALYYCARGDSRNYFVGDYFDYWGQGTLVTVSS VL: DIQMTQSPSTLSASIGDRVTITCRASQSISSWLAWYQQKPGKAPKVLIYKASSLEAGVPSRFSGSGSGTEFTLTISSLQPDDFASYYCQQYSSYSRTFGQGTKVEIK")
122

Qu. Query (binder): H1H292P (antibody, V domains shown, Fully human antibody, H1H prefix (human IgG1)) VH: EVQLVESGGGLVQPGGSLRLSCVASGFTFSSYDMHWVRQLPGKGLEWVSAIGVAGDTYYPASVKGRFTISRENAKNSLYLQMNSLRAGDTAVYYCARGDSGNYYDGDYFDFWGQGTLVTVSS VL: DIQMTQSPSTLSASVGDRVTITCRASQSINRWLAWYQQKPGKAPKVLIYKASNLESGVPSRFSGSGSGTEFTLTISSLQPDDFATYYCQQYDSYFRTFGQGTKVEIK ; field requested: t1/2
Ans. 88
